# Test system: Staphylococcus aureus
# protocol: Antibacterial activity against methicilin-resistant Staphylococcus aureus C1923 assessed as inhibition of bacterial growth incubated for 24 to 48 hrs by microdilution broth method
# Type: functional, organism-based
# condition_set: time 24-48 hrs
Calls of active or inactive are those of the source. The rule behind the calls is not given here.
Lab note: assign the record to one of active, inactive

CCNc1nc(N2CCOCC2)nc2ncn(Cc3ccc4cc(F)ccc4c3)c12: inactive

Problem: What classification did `CSc1nc(N2CCOCC2)nc2ncn(Cc3ccc4ccccc4c3)c12` end up with in this test?
Solution: inactive

Problem: What about this compound? `CCNc1nc(N2CCOCC2)nc2ncn(Cc3ccc4ccccc4c3)c12`
Solution: inactive

Problem: Another compound: `O=c1[nH]c(N2CCSCC2)nc2ncn(Cc3ccc4ccccc4c3)c12`
Solution: inactive
